Target: T1, His-tagged cynomolgus monkey B7-H3 (cynomolgus monkey)
T1 chain: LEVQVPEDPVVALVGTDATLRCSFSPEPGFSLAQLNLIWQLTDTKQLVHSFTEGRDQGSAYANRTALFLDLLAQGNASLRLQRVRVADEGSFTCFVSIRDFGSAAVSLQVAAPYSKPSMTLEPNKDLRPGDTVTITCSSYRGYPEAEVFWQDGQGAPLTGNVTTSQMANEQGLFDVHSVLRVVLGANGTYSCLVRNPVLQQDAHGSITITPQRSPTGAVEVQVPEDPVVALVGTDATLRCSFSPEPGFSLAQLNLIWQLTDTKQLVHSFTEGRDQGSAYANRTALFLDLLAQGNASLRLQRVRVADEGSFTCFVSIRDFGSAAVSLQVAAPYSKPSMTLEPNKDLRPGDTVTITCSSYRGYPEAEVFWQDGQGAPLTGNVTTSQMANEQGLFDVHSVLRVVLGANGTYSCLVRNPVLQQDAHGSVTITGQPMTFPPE
Assay: ELISA, coated His-tagged antigen, scFv-Fc 1 ug/ml
measurement kind: ELISA OD450 @ 1 ug/ml (OD450)
Number in OD450, nothing else.

binder	output unit	ELISA OD450 @ 1 ug/ml
40579p1.G1 (scFv, V domains shown, Tested as scFv-Fc (Expi293 supernatant)) VH: EVQLLESGGGLVQPGGSLRLSCAASGFNFSSYWMSWVRQAPGKGLEWVSGISISYGGNAYYADSVKGRFTVSRDNSKNTLYLQMNSLRAEDTAVYYCGRDRSPYQYRSMDVWGQGTTVTVSS VL: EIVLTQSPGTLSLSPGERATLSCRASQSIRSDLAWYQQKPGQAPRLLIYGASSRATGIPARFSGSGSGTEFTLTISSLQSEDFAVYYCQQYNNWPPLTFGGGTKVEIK	OD450	1.73
40633p1.1.G7 (scFv, V domains shown, Tested as scFv-Fc (Expi293 supernatant)) VH: EVQLLESGGGLVQPGGSLRLSCAASGFTFSGSAMNWVRQAPGKGLEWVSAINSGGTTIYYADSVKGRFTVSRDNSKNTLYLQMNSLRAEDTAVYYCVKLDFYYGMDVWGEGTTVTVSS VL: QSVVTQPPSASGTPGQRVTVSCSGSSSNVGSKYVQWYQQLPGTAPKLLIYATDRRPSGVPDRFSGSKSGTSASLAISGLQSEDEADYYCASWDDSLNAWVFGGGTKLTVL	OD450	1.95

Task item: Hello, please tell me recorded ELISA OD450 @ 1 ug/ml for this one: 40579p1.E5 (scFv, V domains shown, Tested as scFv-Fc (Expi293 supernatant)) VH: EVQLLESGGGLVQPGGSLRLSCAASGFTFSDDWMTWVRQAPGKGLEWVSAINWNGNSTHYADSVKGRFTVSRDNSKNTLYLQMNSLRAEDTAVYYCAKSRTTYYSSMDVWGQGTTVTVSS VL: EIVLTQSPGTLSLSPGERATLSCRASQTVGSYLAWYQQKPGQAPRLLIYGASSRATGIPARFSGSGSGTDFTLTISSLQSEDFAVYYCQHYYDWPPYSFGGGTKVEIK
Reply: 2.17

Task item: Specify ELISA OD450 @ 1 ug/ml for 40579p1.D1 (scFv, V domains shown, Tested as scFv-Fc (Expi293 supernatant)) VH: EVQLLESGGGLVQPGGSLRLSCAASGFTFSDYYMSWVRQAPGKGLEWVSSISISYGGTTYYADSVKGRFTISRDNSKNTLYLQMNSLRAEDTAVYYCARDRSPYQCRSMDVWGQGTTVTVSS VL: EIVLTQSPGSLSLSPGERATLSCRASQSVNSDLAWYQQKPGQAPRLLIYAASSRATGIPARFSGSGSGTEFTLTISSLQSEDFAVYYCQQYNNWPPLTFGGGTKVEIK and stop.
Reply: 1.33

Task item: Complete the entry with ELISA OD450 @ 1 ug/ml for 40511p1.1.H5 (scFv, V domains shown, Tested as scFv-Fc (Expi293 supernatant)) VH: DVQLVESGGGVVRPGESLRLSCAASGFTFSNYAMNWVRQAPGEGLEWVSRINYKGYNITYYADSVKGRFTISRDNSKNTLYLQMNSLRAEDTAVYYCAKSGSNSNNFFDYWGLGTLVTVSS VL: EIVLTQSPGTLSLSPGERATLSCRASQSIRSDLAWYQQKPGQAPRLLIYGAASRATGIPARFSGSGSGTEFTLTISSLQSGDFAVYYCQQYNSWPPLTFGGGTKVEIK
Reply: 2.22
